System: HT29 colon
Assay: NCI tumour cell line growth inhibition, 48 h
*1 amine or outer side, *2 acyl side, *3 side chain or, on linkers, in order; H or OH if unused. Where a SMILES comes first, the peptide text is derived from it. Bridges are numbered along the chain shown (N, C = ends). [ ]: non-standard residue; d: D form. The star is where a group is joined. X38 = CC[C@H](C)[C@@H](N[*:1])[C@@H](O)CC(=O)[*:2]; NMeY = CN[C@@H](Cc1ccc(O)cc1)C(=O)O; dNMeL = CN[C@H](CC(C)C)C(=O)O; Hiv = CC(C)[C@H](O)C(=O)O; Pyruvoyl = CC(=O)C(=O)*
Quantity Measured: TGI

Compound	Measured Result
CCc1c(C)[nH]c(/C=C2\N=C(c3ccc[nH]3)C=C2OC)c1C	2.29 µM
CC[C@H](C)[C@H]1NC(=O)[C@@H](NC(=O)[C@@H](CC(C)C)N(C)C(=O)[C@@H]2CCCN2C(=O)C(C)=O)[C@@H](C)OC(=O)[C@H](Cc2ccc(OC)cc2)N(C)C(=O)[C@@H]2CCCN2C(=O)[C@H](CC(C)C)NC(=O)[C@H](C(C)C)OC(=O)C[C@@H]1O (Pyruvoyl-P[dNMeL]T[X38][Hiv]LP[NMeY](Me); ester 3-C)	0.0795 µM
COc1ccc(Cn2nc(-c3cc(OC)c(OC)c(OC)c3)c3c2CCc2cnoc2-3)cc1OC	> 100 µM
O=C(O)C(=C\c1ccc2c(c1)OCO2)/C(=C/c1ccc2c(c1)OCO2)C(=O)O	> 100 µM
C=C1C(=O)OC2CC3(C)C=CC(=O)C(=C)C3CC12 (stereo not drawn)	3.45 µM
COc1cc(Br)c(OC)c2c(OC)cc(C)cc12	> 100 µM
OCC1OC(n2ccc3c2ncn2ncnc32)C(O)C1O (stereo not drawn)	> 100 µM
COc1ccc(/C=C2\OC(=O)C(Cl)=C2c2ccc(OC)cc2)cc1	> 100 µM

----------
Test system: LOX IMVI melanoma
Assay: NCI tumour cell line growth inhibition, 48 h
Quantity Measured: TGI (µM)

Molecule	Readout Qualifier	Measured Result
c1ccc2[nH]c(-c3ccc(N4CCN(c5ccc(-c6nc7ccccc7[nH]6)cc5)CC4)cc3)nc2c1	>	100
CC(C)(C(=O)NN)c1ccccc1	>	100
NC(=O)OCC(COc1ccc(Cl)cc1)OC(=O)c1ccccc1Cl (stereo not given)	=	27.9
O=C(NC(C(F)(F)F)(C(F)(F)F)P(=O)(c1ccccc1)c1ccccc1)C(C(F)(F)F)C(F)(F)F	=	58.9
CC(C)=CCOc1cc(NC(=S)c2ccoc2C)ccc1Cl	>	100

----------
System: SK-MEL-5 melanoma
Assay: NCI tumour cell line growth inhibition, 48 h; in the data active = GI50 below about 0.43 µM; inactive = the rest
Possible outcomes: y (active), n (inactive)

Compound	Cat
O=S(=O)(c1ccc(NC(=S)NCc2cccnc2)cc1)N1CCCCC1	n
C=C(C)[C@@H]1CC[C@]2(C(=O)NCCCN)CC[C@]3(C)[C@H](CC[C@@H]4[C@@]5(C)CC[C@H](O)C(C)(C)[C@@H]5CC[C@]43C)[C@@H]12	n
CC1=C(C(=O)OCc2ccccc2)C(c2ccc3c(c2)OCO3)n2c(nc3ccccc32)N1 (stereo not drawn)	n
COc1cc2cc(Oc3ccc(NC(=O)Nc4ccc(Cl)c(C(F)(F)F)c4)cc3)c(C)nc2cc1OCCN1CCCCC1	n
CCN(CC)CCOc1ccc(C(=C(C)c2ccc(Cl)cc2)c2ccc(OCCN(CC)CC)cc2)cc1	n
C=C1C(=O)O[C@@H]2C1CC(=O)C(C)CC/C=C(\C)CCC[C@H](C)[C@H]2OC(C)=O (stereo partly drawn)	n
CCCN1C(=O)/C(=c2\sc3n(c2=O)C2C(NN=3)N(CC)C(=O)N2CC)c2ccccc21 (stereo not drawn)	y
CCN(CC)c1ccc(/C=C/c2cc(C)c3ccccc3n2)cc1	n
CSc1nnc(CCSc2ccnc3c(C(F)(F)F)cccc23)o1	n
C=C(C)[C@@H]1CC=C(CO)CC1	n
Fc1ccc2[nH]cc(Cc3c[nH]c4ccc(F)cc34)c2c1	n
CC(C)(O)c1ccc(N2CCN(c3nnc(Cc4ccccc4)c4ccccc34)CC2)nc1	n
N=C(N)c1nn(C2OC(CO)C(O)C2O)c2nc[nH]c(=O)c12 (stereo not drawn)	n
COc1cccc(OC(=O)c2ccccc2Nc2ccnc(C(F)(F)F)c2)c1	n
COc1cc2cc(C(=O)N3CC(CCl)c4c3cc(NC(=O)C(C)(C)c3ccccc3[N+](=O)[O-])c3ccccc43)[nH]c2c(OC)c1OC (stereo not drawn)	n
Nc1ncnc2sc(=S)c3c(c12)CCC3	n
Cc1cc(N2CCCCC2)nc(N(CCNc2ccnc3cc(Cl)ccc23)Cc2ccco2)n1	n
CCOC(=O)Cc1c[nH]c(=S)[nH]c1=O	n

----------
Recorded measurements of TGI, one per entry
System: CAKI-1 renal
Assay: NCI tumour cell line growth inhibition, 48 h

Compound	TGI
CN(C)c1ccc(-c2c(C#N)c(N)[nH]c(=S)c2C#N)cc1	> 100 µM
CC(=O)[O][Pb]([O]C(C)=O)([c]1ccccc1)[c]1ccccc1	> 100 µM
CC1CC2C(=O)NC(=O)C2c2[nH]c3ccccc3c21 (configuration not stated)	> 100 µM
O=C(O)C1C(C(=O)O)C2C(=O)C=CC1N2Cc1ccccc1 (configuration not stated)	14.5 µM
O=C1CC(=O)NC(=NN2C(=O)CSC2c2ccc(Cl)c(Cl)c2)N1 (configuration not stated)	> 100 µM
C[C@H]1[C@H](C)N(Cc2ccccc2)P(=O)(C(O)/C=C/c2ccccc2)N1Cc1ccccc1 (some centres not stated)	> 25 µM
CCOC(=O)C(c1c[nH]c2ccccc12)(c1c[nH]c2ccccc12)c1c[nH]c2ccccc12	> 100 µM

----------
System: MOLT-4 leukemia
Assay: NCI tumour cell line growth inhibition, 48 h
Quantity Measured: TGI (µM)

Compound	Readout Qualifier	Measured Result
NC(=O)C(Nc1c(Cl)cccc1Cl)c1cc2cc(Br)ccc2nc1Cl (stereo not given)	=	57.6
Cc1ccc2c(c1)C1(C)OC(CC(N)C1O)O2 (stereo not given)	>	100
Cc1cc(N2CCCCC2)nc(N(CCNc2ccnc3cc(Cl)ccc23)Cc2ccco2)n1	=	5.31
Cn1c(O)c(C(=O)Nc2cccs2)c(=O)[nH]c1=S	=	61.7
O=C(NC(C(F)(F)F)(C(F)(F)F)P(=O)(c1ccccc1)c1ccccc1)C(C(F)(F)F)C(F)(F)F	>	100

----------
System: SR leukemia
Experiment: NCI tumour cell line growth inhibition, 48 h
Where a SMILES comes first, the peptide text is derived from it. The star is where a group is joined. Cbz = O=C(OCc1ccccc1)*; OBn = c1ccc(CO*)cc1
Measured TGI, listed per entry for reference.

Compound	TGI
COc1ccc(C(=O)/C=C/c2ccc(OCC(=N)N)cc2)cc1OC	4.39 µM
CC(C)(C(=O)NN)c1ccccc1	> 100 µM
O=C1CSC2(CC(/C=C/c3ccccc3O)=NN2c2cccc(S(=O)(=O)O)c2)N1c1nc2ccccc2s1 (configuration not stated)	49.5 µM
O=C1c2cc3c(cc2CC12Cc1cc4c(cc1C2=O)CCCC4)CCCC3	> 100 µM
COc1cc(Cn2cc3c(c2)-c2oncc2CC3)cc(OC)c1OC	> 100 µM
CCOC(=O)C(c1c[nH]c2ccccc12)(c1c[nH]c2ccccc12)c1c[nH]c2ccccc12	80 µM
COc1ccccc1C1CC(=O)CC(c2ccccc2OC)C12C(=O)NC(=S)NC2=O (configuration not stated)	> 100 µM
O=C1NC(N2CCOCC2)=N/C1=C\c1cccs1	> 100 µM
O=C(CCl)c1ccc([N+](=O)[O-])o1	1.81 µM
CC1CC2OC(=O)C3CC(O)CC(=C23)[C@@]12C[C@@H](c1ccoc1)OC2=O (some centres not stated)	> 100 µM
C=C1C(=O)C([Si](C)(C)C)=C2C=C(C)C3(CC3)C12C (configuration not stated)	11.7 µM
COc1ccc(C(=O)/C=C/c2ccc(Cl)cc2)cc1S(=O)(=O)Nc1c(N)nc(SC)[nH]c1=O	> 100 µM
COc1cc(Br)c(OC)c2c(OC)cc(C)cc12	37.8 µM
O=C(O)[C@@H]1C2CC([C@@H]1C(=O)O)[C@H](N1C(=O)CCC1=O)[C@@H]2Br (some centres not stated)	> 100 µM
CC1=C/C(=N\OCC(=O)O)CC(c2ccc(C(C)C)cc2)C1 (configuration not stated)	> 100 µM
O=C(O)C1CC2C3CCC2C1C3=O (configuration not stated)	> 100 µM
CN(C)c1ccc2nc3ccc(=[N+](C)C)cc-3oc2c1	23.8 µM
O=C(O)CSSCC(=O)O	> 100 µM
C[C@H]1[C@H](C)N(Cc2ccccc2)P(=O)(C(O)/C=C/c2ccccc2)N1Cc1ccccc1 (some centres not stated)	20.5 µM
COC(=O)CNC(=O)C(C)NC(=O)C(CC(=O)OCc1ccccc1)NC(=O)OCc1ccccc1 (stereo not drawn) (Cbz-Asp(OBn)-Ala-Gly-OMe; configuration not given here)	> 100 µM
CN(C(=O)C12C3C4C1C1C2C3C41I)C(C)(C)C (configuration not stated)	> 31.6 µM
C=C(c1ccccc1)C1ON(C)CCc2cc(OC)c(OC)cc21 (configuration not stated)	> 100 µM
